System: CAKI-1 renal
Test: NCI tumour cell line growth inhibition, 48 h
Measured TGI of individual entries

# molecule, TGI
rows = [
    ("O=C1c2cccc3cccc(c23)C(=O)N1CCCNCCCNCCCCNCCCNCCCN1C(=O)c2cccc3cccc(c23)C1=O", "29.6 µM"),
    ("O=C(c1cccs1)N(C(=O)N1CCN(c2ccccc2)CC1)S(=O)(=O)c1ccccc1", "59.9 µM"),
    ("O=[N+]([O-])c1ccc(N2N=C(c3ccc(NCc4nc5ccccc5[nH]4)cc3)CC2c2ccco2)cc1 (stereo not drawn)", "> 100 µM"),
    ("O=C1NC(=O)C(c2cccc([N+](=O)[O-])c2)=C1Nc1cc(Cl)c(O)c(Cl)c1", "> 25 µM"),
    ("CCN(Cc1ccccc1C)c1ccc(CO)c(Cl)c1", "32 µM"),
]

For the molecule O=Cc1ccc2c(c1-c1c(C=O)ccc3c1OCO3)OCO2 , give its reported TGI.
> 100 µM

For the molecule N#CC(C(=O)C(=O)Nc1ccc(Cl)cc1)c1ccccc1 (stereo not drawn) , give its reported TGI.
> 100 µM

For the molecule S=c1[nH]c(=S)c2nnn(-c3ccccc3)c2[nH]1 , give its reported TGI.
> 100 µM
